VALUE TYPE: IC50

-- ask Please indicate recorded IC50 of `Cn1c(CCCC(=O)O)nc2cc(N(CCCl)CCCl)ccc21` measured with Grb2 SH2 (Homo sapiens, UniProt P62993).
Sequence (P62993 whole entry): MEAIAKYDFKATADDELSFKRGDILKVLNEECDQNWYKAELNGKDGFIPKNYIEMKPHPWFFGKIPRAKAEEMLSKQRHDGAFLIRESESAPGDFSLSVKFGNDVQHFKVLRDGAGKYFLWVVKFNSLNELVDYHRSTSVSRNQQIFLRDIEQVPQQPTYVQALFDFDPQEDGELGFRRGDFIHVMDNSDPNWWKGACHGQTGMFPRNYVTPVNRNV
-- reply > 100 µM

* * *

# TGT: recombinant human STAT3 SH2 domain (Homo sapiens)
# Construct: Full-length cDNAs were obtained from a human cDNA library by PCR; Avi-tag (biotinylated in BirA-BL21) (N); made in house; host or cells: Escherichia coli BirA-BL21
# Sequence (P40763 whole entry, the tested form may be a part): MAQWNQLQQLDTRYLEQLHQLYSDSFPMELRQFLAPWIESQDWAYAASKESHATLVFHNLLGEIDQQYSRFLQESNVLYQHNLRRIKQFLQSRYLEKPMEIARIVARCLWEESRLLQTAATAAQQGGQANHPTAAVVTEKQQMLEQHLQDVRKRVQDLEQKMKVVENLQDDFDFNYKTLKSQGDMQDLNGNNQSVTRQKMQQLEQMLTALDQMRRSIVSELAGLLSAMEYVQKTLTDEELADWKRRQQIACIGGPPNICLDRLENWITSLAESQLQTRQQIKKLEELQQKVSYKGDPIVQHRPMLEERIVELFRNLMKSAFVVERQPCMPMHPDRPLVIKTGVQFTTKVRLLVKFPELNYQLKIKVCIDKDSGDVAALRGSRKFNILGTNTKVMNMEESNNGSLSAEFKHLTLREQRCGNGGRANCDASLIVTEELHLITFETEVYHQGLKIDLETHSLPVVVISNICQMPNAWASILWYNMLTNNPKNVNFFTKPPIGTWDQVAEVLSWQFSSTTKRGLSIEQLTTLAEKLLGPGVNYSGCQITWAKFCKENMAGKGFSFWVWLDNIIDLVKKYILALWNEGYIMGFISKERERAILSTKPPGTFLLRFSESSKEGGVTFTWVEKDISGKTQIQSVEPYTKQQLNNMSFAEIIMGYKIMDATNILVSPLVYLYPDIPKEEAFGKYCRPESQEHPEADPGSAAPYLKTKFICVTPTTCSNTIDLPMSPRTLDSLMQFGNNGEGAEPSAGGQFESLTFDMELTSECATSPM
# RUN DESCRIPTION: AlphaScreen SH2 binding assay, STAT3
# RUN PARAMETERS: AlphaScreen, 50 nM protein, FITC-GpYLPQTV; read-out: IC50, inhibition of STAT3-SH2 binding to phosphotyrosine peptide
pIC50: −log10 of the molar value.
VALUE TYPE: pIC50

-- ask Fill in pIC50 for record Cn1c(CCCC(=O)O)nc2cc(N(CCO)CCO)ccc21 [HP2, dihydroxy bendamustine]
-- reply < 4.00
